Listed next: entries and their corresponding %Inh.
Tested on: EPHB3;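 also: KINOMEscan kinase panel screen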
run conditions: concentration: 1 μM, replicates: in singlicate; n = 1
API: value field is a number in %; no unit string.

### Prompt So what does the record say about %Inh for `NC(=O)c1nnc2ccccc2c1N` ?
### Response 0

### Prompt Field entry: `COC(=O)c1c(-c2ccccc2)c2cc(C(=O)O)ccc2c(=O)n1Cc1ccccc1`
### Response 0

### Prompt Field entry: COc1ccccc1-c1ccc2c(NC(=O)C3CC3)n[nH]c2n1 [SB-711239]
### Response 15

### Prompt Field entry: COc1ccccc1CNC(=O)c1cc(C(=O)c2ccccc2C)c[nH]1 [GSK364507]
### Response 6

### Prompt Field entry: Cc1cc(-c2ccc3c(c2)CC[C@@H](N[C@@H](C)c2ccccc2)C3)cnc1N.Cl [GW412617]
### Response 9

---
### Prompt So what does the record say about %Inh for O=S(=O)(c1ccc(-c2ccnc3[nH]ccc23)cc1)N1CCCC1 [GSK846226] ?
### Response 14

### Prompt Field entry: Cc1cccc(-c2nc(C)cc(Nc3ccncc3)n2)n1 [GSK257997]
### Response 5

### Prompt Field entry: CN(C)CCN(C)C(=O)c1cc(-c2ccncc2)c(-c2ccc(Cl)c(O)c2)o1.Cl.Cl [SB-710397]
### Response 11

### Prompt Field entry: `CC(=O)Nc1nc2cnc(Nc3cc(NC(=O)c4cccc(CCC#N)c4)ccc3C)nc2s1`
### Response 14

### Prompt Field entry: Cc1ccc(-c2cc(-c3c[nH]nc3-c3ccccn3)ccn2)cc1 [GW684088]
### Response 9

### Prompt Field entry: `Fc1cccc(COc2nnc(-c3ccc4c(c3)CCO4)o2)c1`
### Response 20

### Prompt Field entry: Nc1nc(-c2nccs2)c(-c2ccnc3ccccc23)s1 [GW693542]
### Response 10

### Prompt Field entry: Cc1cc(N2Cc3ccccc3C2)nc(Nc2ccc(S(=O)(=O)N3CCOCC3)cc2)n1.Cl [GSK1669917]
### Response 0
